Biological target: OsWRKY34 (Oryza sativa, UniProt Q0JBA9 1-250)
Sequence (Q0JBA9 entry or part of it): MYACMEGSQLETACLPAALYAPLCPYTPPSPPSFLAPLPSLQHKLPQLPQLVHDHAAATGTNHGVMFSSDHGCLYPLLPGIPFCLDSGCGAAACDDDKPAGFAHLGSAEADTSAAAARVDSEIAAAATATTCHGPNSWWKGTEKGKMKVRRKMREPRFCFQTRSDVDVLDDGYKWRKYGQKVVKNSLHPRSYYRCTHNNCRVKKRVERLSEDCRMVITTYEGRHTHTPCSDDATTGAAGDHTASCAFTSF
Test: protein-binding microarray (RPBM); PBS, 2% BSA, 51.3 ng/ul salmon testes DNA, 50 uM zinc acetate, 200 nM TF, 25 C, 1 h; high values mean tight binding
Conditions: protein: recombinant; tags: N-terminal polyhistidine and DsRed monomer fusion (pET32a); label: CyDye5-dUTP incorporated in the synthesized complementary strand; 3' TTTTT single-stranded linker to array surface; dsDNA, one strand shown
In all, about 68,000 sequences were measured (“fluorescence intensity (a.u.)”: median about 9,100, highest 2% from about 16,000 on). This excerpt belongs to a sample that is enriched for the highest values.
readoutKind: binding signal

Lab note: measured binding signal of `TGGGTCTCTTGGGGTCGGTGGGGCGGTCGTCGTCCGTGCCCGGAGTCACCTAGTGCAG` was 11400 fluorescence intensity (a.u.)

Briefly, binding signal measured for `TAGGGGTTAGTGTGCGAGCATGTGCTGTGTAATTTTTTAACGGAGTCACCTAGTGCAG` : 10600 fluorescence intensity (a.u.)

Quick note, binding signal for `TAGTTGTTGTTGTTGTTATTTGTTAATTGGGCCTTGTTCACGGAGTCACCTAGTGCAG` landed at 12300 fluorescence intensity (a.u.)

Kindly note the recorded binding signal for `GCCATATTATTTTTCCTTTGTCCTAATTAATGTTAGAAATCGGAGTCACCTAGTGCAG` , which is 9440 fluorescence intensity (a.u.)

For reference, reported binding signal for `CACCGCCATCTTCCTCTTCTTCTTCGTCGTCGTGGTTGGCCGGAGTCACCTAGTGCAG` stands at 11100 fluorescence intensity (a.u.)

The sequence listed as `CTAATTAGTACTGCAATTTTGGGTCCTTGGGTTGTTAGAACGGAGTCACCTAGTGCAG` shows binding signal equal to 16900 fluorescence intensity (a.u.)

Note to self: binding signal recorded for `AACCTACTAGCTAGCTTAGTGTACTCTGTGTACTGTATATCGGAGTCACCTAGTGCAG` was 8190 fluorescence intensity (a.u.)

So for `CTACTAGTACAGGCTATATCGCTTACTCCCTTTGTCCTAACGGAGTCACCTAGTGCAG` , the logged binding signal turned out to be 8420 fluorescence intensity (a.u.)

binding signal in this record for `GGCTATCGGTGGGTGGGTGGGGTGTACTACTCCCCTATAACGGAGTCACCTAGTGCAG` : 22200 fluorescence intensity (a.u.)
